System: Mycobacterium tuberculosis Erdman (autoluminescent)
test_description: GRinf, maximum normalised growth rate inhibition (unitless (-1 to 1)); higher = less effect (negative = killing)
measurement_context: in vitro model: dormancy (butyrate + nitrate, low O2); time point: terminal (~4-5 doublings, model-specific)
# GRinf per record follows
Keep it simple and answer with nothing but the number.

CC(=O)NC[C@H]1CN(c2ccc(N3CCOCC3)c(F)c2)C(=O)O1 [linezolid] + O=[N+]([O-])c1cn2c(n1)OC[C@@H](OCc1ccc(OC(F)(F)F)cc1)C2 [pretomanid] | -0.248
COc1c(N2C[C@@H]3CCCN[C@@H]3C2)c(F)cc2c(=O)c(C(=O)O)cn(C3CC3)c12 [moxifloxacin] + O=[N+]([O-])c1cn2c(n1)OC[C@@H](OCc1ccc(OC(F)(F)F)cc1)C2 | -0.142

Record CC(C)/N=c1\cc2n(-c3ccc(Cl)cc3)c3ccccc3nc-2cc1Nc1ccc(Cl)cc1 [clofazimine] + NC(=O)c1cnccn1 [pyrazinamide] . Reported GRinf: -0.387

* * *

Test system: Mycobacterium tuberculosis Erdman (autoluminescent)
test_description: AUC25, normalised area under dose response up to IC25 (fraction (0-1)); higher = more potent at low dose
measurement_context: in vitro model: cholesterol-high 0.2 mM; time point: constant (~7 days, model-specific)
# AUC25 per record follows
Keep it simple and answer with nothing but the number.

Example entries begin here.
NC(=O)c1cnccn1 [pyrazinamide] + CO[C@H]1/C=C/O[C@@]2(C)Oc3c(C)c(O)c4c(O)c(c(/C=N/N5CCN(C)CC5)c(O)c4c3C2=O)NC(=O)/C(C)=C\C=C\[C@H](C)[C@H](O)[C@@H](C)[C@@H](O)[C@@H](C)[C@H](OC(C)=O)[C@@H]1C [rifampicin] | 0.0909
CC[C@@H](CO)NCCN[C@@H](CC)CO [ethambutol] + CC(=O)NC[C@H]1CN(c2ccc(N3CCOCC3)c(F)c2)C(=O)O1 [linezolid] | 0.106
CC(=O)NC[C@H]1CN(c2ccc(N3CCOCC3)c(F)c2)C(=O)O1 [linezolid] + CO[C@H]1/C=C/O[C@@]2(C)Oc3c(C)c(O)c4c(O)c(c(/C=N/N5CCN(C)CC5)c(O)c4c3C2=O)NC(=O)/C(C)=C\C=C\[C@H](C)[C@H](O)[C@@H](C)[C@@H](O)[C@@H](C)[C@H](OC(C)=O)[C@@H]1C [rifampicin] | 0.101

Record NNC(=O)c1ccncc1 [isoniazid] + CO[C@H]1/C=C/O[C@@]2(C)Oc3c(C)c(O)c4c(O)c(c(/C=N/N5CCN(C)CC5)c(O)c4c3C2=O)NC(=O)/C(C)=C\C=C\[C@H](C)[C@H](O)[C@@H](C)[C@@H](O)[C@@H](C)[C@H](OC(C)=O)[C@@H]1C [rifampicin] . Reported AUC25: 0.0535

* * *

# GRinf per record follows
Test system: Mycobacterium tuberculosis Erdman (autoluminescent)
test_description: GRinf, maximum normalised growth rate inhibition (unitless (-1 to 1)); higher = less effect (negative = killing)
measurement_context: in vitro model: butyrate; time point: constant (~7 days, model-specific)

CO[C@H]1/C=C/O[C@@]2(C)Oc3c(C)c(O)c4c(O)c(c(/C=N/N5CCN(C6CCCC6)CC5)c(O)c4c3C2=O)NC(=O)/C(C)=C\C=C\[C@H](C)[C@H](O)[C@@H](C)[C@@H](O)[C@@H](C)[C@H](OC(C)=O)[C@@H]1C | 0.117
CC(=O)NC[C@H]1CN(c2ccc(N3CCOCC3)c(F)c2)C(=O)O1 | 0.0641
COc1c(N2C[C@@H]3CCCN[C@@H]3C2)c(F)cc2c(=O)c(C(=O)O)cn(C3CC3)c12 | 0.0408
COc1nc2ccc(Br)cc2cc1[C@@H](c1ccccc1)[C@@](O)(CCN(C)C)c1cccc2ccccc12 | -0.167

Record NNC(=O)c1ccncc1 . Reported GRinf: -0.0682

Record O=[N+]([O-])c1cn2c(n1)OC[C@@H](OCc1ccc(OC(F)(F)F)cc1)C2 . Reported GRinf: -0.111

Data origin, for the record: the supplement of paper PMC8617591
